# pEC50 values compiled below
Molecular target: T1, human OX40 on cells (human, UniProt P43489 29-277)
T1 construct: also called hOX40-293 cells; hOX40-HT1080
T1 sequence: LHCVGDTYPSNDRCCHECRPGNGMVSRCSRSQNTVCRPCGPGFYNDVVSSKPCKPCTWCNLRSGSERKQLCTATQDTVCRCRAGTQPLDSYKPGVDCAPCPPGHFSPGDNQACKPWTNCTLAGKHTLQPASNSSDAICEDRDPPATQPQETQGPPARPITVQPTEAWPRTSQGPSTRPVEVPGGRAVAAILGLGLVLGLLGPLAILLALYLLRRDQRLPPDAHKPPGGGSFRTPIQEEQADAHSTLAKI
Assay: FACS, blocking of OX40L-His (0.2 µg/mL) binding to hOX40-293 cells
pEC50: −log10 of the molar value.
endpoint_name: pEC50

INSERT INTO measurements (binder, endpoint_name, meas_value) VALUES
  ('14B6 (antibody, V domains shown, also called 14B6.C5.C8; 14B6.C5) VH: EVQLEQSGAEVKKPGESLKISCKGSGYSFTSNWIGWVRQMPGKGLEWMGFIYPGDSDTRYSPSFQGQVTISADKSISTAYLQWSSLKASDIAMYYCARYGDDWYFDLWGRGTLVTVSS VL: EIVLTQSPATLSLSPGERATLSCRASQSVSSYLAWFQQRPGQAPRLLIYDASNRATGIPARFSGSGSGTDFSLTISSLEPEDFAVYYCQQRGDWPITFGQGTRLEIK', 'pEC50', 9.00),
  ('20B3 (antibody, V domains shown, also called 20B3.G12.A2; 20B3.G2) VH: EVQLVESGGGLVQPGGSLRLSCAASGFTFSSYDMHWVRQTTGKGLEWVSVIGTAGDTYYPGSVKGRFTISRENAKNSLYLQMNSLRAGDTAVYYCARGGMGNYFDYWGQGTLVTVSS VL: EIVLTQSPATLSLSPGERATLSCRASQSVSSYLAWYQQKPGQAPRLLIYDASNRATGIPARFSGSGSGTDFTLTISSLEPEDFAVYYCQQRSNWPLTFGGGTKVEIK', 'pEC50', 9.03),
  ('23H3 (antibody, V domains shown, also called 23H3.C6) VH: EVQLVQSGGGLVHPGGSLRLSCAGSGFTFSNYAMYWVRQAPGKGLEWVSAIGIGGDTFYTDSVKGRFTISRDNAKNSLSLQMNSLRAEDMAVYYCARMGTGYFFDYWGQGTLVTVSS VL: EIVLTQSPATLSLSPGERATLSCRASQSVSSYLAWYQQKPGQAPRLLIYDASNRATGIPARFSGSGSGTDFTLTISSLEPEDFAVYYCQQRSNWPLTFGPGTKVDIK', 'pEC50', 9.42),
  ('20C1 (antibody, V domains shown, also called 20C1.F2.D1; 20C1.F2) VH: EAQLVQSGGGLVHPGGSLRLSCADSGFTFSSYAMYWVRQAPGKGLEWVSAIDTDGGTFYADSVRGRFTISRDNAKNSLYLQMNGLRAEDMAVYFCARLGEGYFFDYWGQGTLVTVSS VL: EIVLTQSPATLSLSPGERATLSCRASQSVSSYLAWYQQKPGQAPRLLIYDASNRATGIPARFSGSGSGTDFTLTISSLEPEDFAVYYCQQRSNWPPTFGGGTKVEIK', 'pEC50', 9.47),
  ('3F4 (antibody, V domains shown, also called 3F4.G11.D2; 3F4.G11) VH: QVQLVQSGAEVKKPGASVKVSCKASGNTFTSYDVNWVRQATGQGLEWMGWMNPNSGNTGYAPKFQGRVTMTRNTSISTAYMELSSLRSEDTAVYYCARIYSSSYNWFDPWGQGTLVTVSS VL: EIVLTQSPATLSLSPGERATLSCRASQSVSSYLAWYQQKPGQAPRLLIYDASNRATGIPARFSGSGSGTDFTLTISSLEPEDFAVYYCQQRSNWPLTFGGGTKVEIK', 'pEC50', 9.27),
  ('18E9 (antibody, V domains shown, human mAb from hybridoma; also called 18E9.G5.H4; 18E9.G5) VH: EVQLVQSGGGLVHPGGSLRLSCAHSGFTFTSSAMHWVRQAPGKGLEWISAIGTGGDTYYADSVKGRFTISRDNAKNSLYLQINSLRAEDMAVYYCARDFYDILTGIFDYWGQGTLVTVSS VL: DIQMTQSPSSVSASVGDRVTITCRASQGISSWLAWYQHKPGKAPKLLIYAASSLQSGVPSRFSGSGSGTDFTLTISSLQPEDFATYYCQQANSFPSTFGQGTKVEIK', 'pEC50', 9.32);
